Tested on: Zymoseptoria tritici
Experiment: Septoria leaf blotch of wheat, whole-plant fungicidal activity (SEPTTR)
Assay type: in vivo, Zymoseptoria tritici on wheat plants (variety 'Yuma')
Conditions: 72 h, 3DC (3 day curative), read-out: % Disease Control Rating SEPTTR
Procedure: Example A: Evaluation of Fungicidal Activity: Septoria Leaf Blotch of Wheat (Zymoseptoria tritici; Bayer Code […]) Technical grades of materials were dissolved in acetone, which were then mixed with nine volumes of water (H2O) containing 110 ppm Triton X-100. The fungicide solutions were applied onto wheat seedlings using an automated booth sprayer to run-off. […] All fungicides were evaluated using the aforementioned method for their activity vs. all target diseases, unless stated otherwise. […]
value kind: pest or weed control at 200 ppm

• CCN(C)/C=N/c1cc(C)c(C(=O)CC2CCCC2)cc1OC = < 20%
• CCN(C)/C=N/c1cc(OC)c(C(=O)Cc2c(F)cc(F)cc2F)cc1C = 50 to 85%
• C=CCN(C)/C(S)=N/c1cc(C)c(C(=O)CC2CCCCC2)cc1C = < 20%

Provenance of the data: patent US20240000075A1
